So I've got a bunch of molecules here, and I need their IC50 values.
# Test system: recombinant human WRN (Homo sapiens, UniProt Q14191)
# Construct: purchased BPS 101264
# Sequence (Q14191 whole entry): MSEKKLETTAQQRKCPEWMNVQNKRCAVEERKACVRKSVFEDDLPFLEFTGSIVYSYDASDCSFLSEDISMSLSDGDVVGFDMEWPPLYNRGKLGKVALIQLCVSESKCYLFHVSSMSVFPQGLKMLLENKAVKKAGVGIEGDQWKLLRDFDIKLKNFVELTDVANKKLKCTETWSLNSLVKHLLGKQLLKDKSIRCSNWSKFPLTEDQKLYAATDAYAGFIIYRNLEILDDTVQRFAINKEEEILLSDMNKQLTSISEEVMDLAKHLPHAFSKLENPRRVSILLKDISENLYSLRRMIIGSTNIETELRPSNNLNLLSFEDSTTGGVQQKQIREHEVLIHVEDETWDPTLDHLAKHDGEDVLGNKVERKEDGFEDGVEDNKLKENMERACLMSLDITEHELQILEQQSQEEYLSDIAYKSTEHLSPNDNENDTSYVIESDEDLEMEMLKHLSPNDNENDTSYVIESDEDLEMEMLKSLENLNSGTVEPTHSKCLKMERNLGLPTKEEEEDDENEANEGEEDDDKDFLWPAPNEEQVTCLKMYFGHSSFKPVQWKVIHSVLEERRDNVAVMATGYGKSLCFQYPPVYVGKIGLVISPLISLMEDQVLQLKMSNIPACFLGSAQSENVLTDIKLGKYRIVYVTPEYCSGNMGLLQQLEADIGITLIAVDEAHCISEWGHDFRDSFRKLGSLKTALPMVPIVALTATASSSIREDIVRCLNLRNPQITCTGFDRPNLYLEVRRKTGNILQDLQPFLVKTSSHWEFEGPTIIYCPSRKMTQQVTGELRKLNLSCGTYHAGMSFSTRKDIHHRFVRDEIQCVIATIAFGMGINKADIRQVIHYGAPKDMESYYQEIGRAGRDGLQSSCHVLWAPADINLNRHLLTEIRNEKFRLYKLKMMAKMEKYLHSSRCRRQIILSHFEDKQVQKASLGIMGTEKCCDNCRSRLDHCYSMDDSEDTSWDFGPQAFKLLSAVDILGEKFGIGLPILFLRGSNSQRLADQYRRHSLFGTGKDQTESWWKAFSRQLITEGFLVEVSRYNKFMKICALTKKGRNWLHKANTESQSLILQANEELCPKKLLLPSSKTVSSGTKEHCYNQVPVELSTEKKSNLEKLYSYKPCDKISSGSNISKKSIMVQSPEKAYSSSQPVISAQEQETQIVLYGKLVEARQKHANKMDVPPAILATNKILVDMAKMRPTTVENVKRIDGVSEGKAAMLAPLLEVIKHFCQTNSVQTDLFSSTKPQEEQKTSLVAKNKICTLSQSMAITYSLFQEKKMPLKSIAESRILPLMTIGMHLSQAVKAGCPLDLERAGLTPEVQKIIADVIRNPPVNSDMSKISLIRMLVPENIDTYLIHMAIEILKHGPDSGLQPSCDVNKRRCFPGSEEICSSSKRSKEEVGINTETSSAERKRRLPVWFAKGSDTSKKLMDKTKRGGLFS
# Assay overview: Inhibition of WRN enzyme activity (ATPase), ADP-Glo Kinase Assay
# Assay type: biochemical
# Experimental conditions: WRN protein 5 nM, Flap 0.1 nM, ATP 30 µM; read-out: IC50

Illustrative cases are given below, each with its answer.
CCc1c(N2CCN(C(=O)c3ncccc3O)CC2)c(=O)n2nc(C3=CC4CC(O)CC4C3)nc2n1CC(=O)Nc1ccc(C(F)(F)F)cc1Cl (stereo not drawn) [Example 121]    1 to 100 nM
CCc1c(N2CCN(C(=O)c3ncnc(C)c3O)CC2)c(=O)n2nc(C3=CCCCCC3)nc2n1CC(=O)Nc1ccc(C(F)(F)F)cc1Cl [Example 6]    < 1 nM

Turning to the following molecule.
Bench note: what IC50 did CCc1c(N2CCN(C(=O)c3ncnc(C)c3O)CC2)c(=O)n2nc(C3=CCCCCC3)nc2n1CC(=O)Nc1ccc(S(F)(F)(F)(F)F)cc1 [Example 27] show?
1 to 100 nM

###

So I've got a bunch of compounds here, and I need their IC50 values.
# Test system: recombinant human WRN (Homo sapiens)
# Construct: purchased BPS 101264
# Assay overview: Inhibition of WRN enzyme activity (ATPase), ADP-Glo Kinase Assay
# Assay type: biochemical
# Experimental conditions: WRN protein 5 nM, Flap 0.1 nM, ATP 30 µM; read-out: IC50

Dear reader, for each entry below, please note its IC50.
1. CCc1c(N2CCN(C(=O)c3ncccc3O)CC2)c(=O)n2nc(C3=CC4CC(=O)CC4C3)cc2n1CC(=O)Nc1ccc(C(F)(F)F)cc1Cl (stereo not drawn) [Example 56]
2. CCc1c(N2CCN(C(=O)c3ncnc(C)c3O)CC2)c(=O)n2nc(-c3cccc4ccoc34)nc2n1CC(=O)Nc1ccc(C(F)(F)F)cc1Cl [Example 69]
3. CCc1c(N2CCN(C(=O)c3ncnc(C)c3O)CC2)c(=O)n2nc(C3=CC4CC(=O)CC4C3)nc2n1CC(=O)Nc1ccc(C(F)(F)F)cc1Cl (stereo not drawn) [Example 17]
4. CCc1c(N2CCN(C(=O)c3ncnc(C)c3O)CC2)c(=O)n2nc(-c3ccc4c(ccn4CC)c3)nc2n1CC(=O)Nc1ccc(C(F)(F)F)cc1Cl [Example 183]
5. CCc1c(N2CCN(C(=O)c3ncnc(C)c3O)CC2)c(=O)n2nc(C3=CC4CC4C3)nc2n1CC(=O)Nc1ccc(C(F)(F)F)cc1Cl (stereo not drawn) [Example 18]
6. CCc1c(N2CCN(C(=O)c3ncnc(C)c3O)CC2)c(=O)n2nc(/C=C(\C)C3CC3)nc2n1CC(=O)Nc1ccc(C(F)(F)F)cc1Cl [Example 36]

1: 1 to 100 nM; 2: < 1 nM; 3: 1 to 100 nM; 4: 1 to 100 nM; 5: 1 to 100 nM; 6: 1 to 100 nM

###

# Test system: recombinant human WRN (Homo sapiens)
# Construct: purchased BPS 101264
# Assay overview: Inhibition of WRN enzyme activity (ATPase), ADP-Glo Kinase Assay
# Assay type: biochemical
# Experimental conditions: WRN protein 5 nM, Flap 0.1 nM, ATP 30 µM; read-out: IC50
pIC50: −log10 of the molar value.
So I've got a bunch of compounds here, and I need their pIC50 values.

Illustrative cases are given below, each with its answer.
CCc1c(N2CCN(C(=O)c3ncnc(C)c3O)CC2)c(=O)n2nc(-c3ccc4sc(C)nc4c3)nc2n1CC(=O)Nc1ccc(C(F)(F)F)cc1Cl    7.00 to 9.00
CCc1c(N2CCN(C(=O)c3ncnc(C)c3O)CC2)c(=O)n2nc(-c3ccn4ccnc4c3)nc2n1CC(=O)Nc1ccc(C(F)(F)F)cc1Cl    7.00 to 9.00
CCc1c(N2CCN(C(=O)c3ncnc(C)c3O)CC2)c(=O)n2nc(N3CC4(COC4)C3)nc2n1CC(=O)Nc1ccc(C(F)(F)F)cc1Cl    7.00 to 9.00
CCc1c(N2CCN(C(=O)c3ncnc(C)c3O)CC2)c(=O)n2nc(C3=CCC4(CC3)CC4)nc2n1CC(=O)Nc1ccc(S(F)(F)(F)(F)F)cc1    7.00 to 9.00
CCc1c(N2CCN(C(=O)c3ncnc(C)c3O)CC2)c(=O)n2nc(/C=C/C(=O)N3CCC3)nc2n1CC(=O)Nc1ccc(C(F)(F)F)cc1Cl    7.00 to 9.00
CCc1c(N2CCN(C(=O)c3ncnc(C)c3O)CC2)c(=O)n2nc(-c3ccc4ccoc4c3)nc2n1CC(=O)Nc1ccc(C(F)(F)F)cc1Cl    > 9.00
CCc1nc2n(CC(=O)Nc3ccc(C(F)(F)F)cc3Cl)c(CC)c(N3CCN(C(=O)c4ncnc(C)c4O)CC3)c(=O)n2n1    7.00 to 9.00
CCc1c(N2CCN(C(=O)c3ncnc(C)c3O)CC2)c(=O)n2nc(-c3ccc4ccoc4c3)cc2n1CC(=O)Nc1ccc(C(F)(F)F)cc1Cl    7.00 to 9.00
CCc1c(N2CCN(C(=O)c3ncnc(C)c3O)CC2)c(=O)n2nc(-c3ccc4nc(N5CCOCC5)sc4c3)nc2n1CC(=O)Nc1ccc(C(F)(F)F)cc1Cl    7.00 to 9.00
[2H]c1sc2ccc(-c3nc4n(CC(=O)Nc5ccc(C(F)(F)F)cc5Cl)c(CC)c(N5CCN(C(=O)c6ncnc(C)c6O)CC5)c(=O)n4n3)cc2c1[2H]    7.00 to 9.00

Dear reader, for each entry below, please note its pIC50.
1. CCc1c(N2CCN(C(=O)c3ncnc(C)c3O)CC2)c(=O)n2nc(-c3ccc4c(c3)OCC4)nc2n1CC(=O)Nc1ccc(C(F)(F)F)cc1Cl
2. CCc1c(N2CCN(C(=O)c3ncnc(C)c3O)CC2)c(=O)n2nc(-c3ccc4occc4c3)nc2n1CC(=O)Nc1ccc(S(F)(F)(F)(F)F)cc1Cl

["7.00 to 9.00", "7.00 to 9.00"]

###

# Assay overview: Metabolic stability in human liver microsomes
# Type: in vitro ADME
# Experimental conditions: human liver microsomes 0.5 mg mL^-1, NADPH 1 mM, 0-60 min; read-out: Liver microsomal stability t1/2 (min) Human
Rule: half-life of 700 min or more gives true (1); anything lower gives false (0).

CCc1c(N2CCN(C(=O)c3ncnc(C)c3O)CC2)c(=O)n2nc(-c3ccc4c(c3)CCO4)nc2n1CC(=O)Nc1ccc(C(F)(F)F)cc1Cl [Example 76]    true (1)
CCc1c(N2CCN(C(=O)c3ncnc(C)c3O)CC2)c(=O)n2nc(-c3ccc4occc4c3)nc2n1CC(=O)Nc1ccc(C(F)(F)F)cc1Cl [Example 67]    false (0)
CCc1c(N2CCN(C(=O)c3ncnc(C)c3O)CC2)c(=O)n2nc(-c3cc4ccccc4s3)nc2n1CC(=O)Nc1ccc(C(F)(F)F)cc1Cl [Example 80]    true (1)

Consider the record given below.
Kindly determine if half-life recorded for CCc1c(N2CCN(C(=O)c3ncnc(C)c3O)CC2)c(=O)n2nc(C3=CCOCC3)nc2n1CC(=O)Nc1ccc(C(F)(F)F)cc1Cl [HRO761, reference compound] is above or exactly 700 min.
false (0)

###

# Assay overview: Pharmacokinetic test in mice after intragastric administration
# Assay type: in vivo
# Experimental conditions: male, mouse, plasma; ICR mice, Oral (10 mg/kg); read-out: Half-life T1/2 (converted)
So I've got a bunch of compounds here, and I need their half-life values.
One number for each entry, in h.

Illustrative cases are given below, each with its answer.
Cc1ncnc(C(=O)N2CCN(c3c(C)n(CC(=O)Nc4ccc(C(F)(F)F)cc4Cl)c4nc(-c5ccc6c(c5)CCO6)nn4c3=O)CC2)c1O [Example 106]    4.85
CCc1c(N2CCN(C(=O)c3ncnc(C)c3O)CC2)c(=O)n2nc(-c3ccc4c(ccn4C)c3)nc2n1CC(=O)Nc1ccc(C(F)(F)F)cc1Cl [Example 103]    2.75
CCc1c(N2CCN(C(=O)c3ncnc(C)c3O)CC2)c(=O)n2nc(-c3ccc4ccoc4c3)nc2n1CC(=O)Nc1ccc(C(F)(F)F)cc1Cl [Example 68]    2.41

Dear reader, for each entry below, please note its half-life.
1. CCc1c(N2CCN(C(=O)c3ncnc(C)c3O)CC2)c(=O)n2nc(C3=CCCCCC3)nc2n1CC(=O)Nc1ccc(C(F)(F)F)cc1Cl [Example 6]
2. CCc1c(N2CCN(C(=O)c3ncnc(C)c3O)CC2)c(=O)n2nc(C3=CCCCCC3)nc2n1CC(=O)Nc1ccc(S(F)(F)(F)(F)F)cc1 [Example 27]
3. CCc1c(N2CCN(C(=O)c3ncnc(C)c3O)CC2)c(=O)n2nc(-c3ccc4occc4c3)nc2n1CC(=O)Nc1ccc(S(F)(F)(F)(F)F)cc1 [Example 97]
4. CCc1c(N2CCN(C(=O)c3ncnc(C)c3O)CC2)c(=O)n2nc(-c3cc4ccccc4s3)nc2n1CC(=O)Nc1ccc(C(F)(F)F)cc1Cl [Example 80]

1.26
2.27
2.3
2.11

Dear reader, for each entry below, please note its half-life.
1. CCc1c(N2CCN(C(=O)c3ncnc(C)c3O)CC2)c(=O)n2nc(C3=CCOCC3)nc2n1CC(=O)Nc1ccc(C(F)(F)F)cc1Cl [HRO761, reference compound]
2. CCc1c(N2CCN(C(=O)c3ncnc(C)c3O)CC2)c(=O)n2nc(-c3ccc4occc4c3)nc2n1CC(=O)Nc1ccc(C(F)(F)F)cc1Cl [Example 67]

2.81
0.66
